system: KYSE-220 (Esophageal Squamous Cell Carcinoma); experiment: Bliss excess, mean over the matrix (fraction); higher = more synergy;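 further: after 72 h of two-drug dosing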
Assign TRUE whenever Bliss excess does not fall below 0.01; assign FALSE whenever it does.

compound	qualitativeLabel
C[C@@H](c1ccc2nccn2c1)n1nnc2ncc(-c3cnn(C)c3)nc21 [Savolitinib] + CC1(C)CCC(CN2CCN(c3ccc(C(=O)NS(=O)(=O)c4ccc(NCC5CCOCC5)c([N+](=O)[O-])c4)c(Oc4cnc5[nH]ccc5c4)c3)CC2)=C(c2ccc(Cl)cc2)C1 [Venetoclax] (first compound max 1 µM, 7x7, partner max 1 µM)	FALSE
C[C@@H](Nc1cc(F)cc(F)c1)c1cc(C(=O)N(C)C)cc2c(=O)cc(N3CCOCC3)oc12 [AZD8186] + CC(=O)c1c(C)c2cnc(Nc3ccc(N4CCNCC4)cn3)nc2n(C2CCCC2)c1=O [Palbociclib] (first compound max 10 µM, 7x7, partner max 10 µM)	FALSE
Cc1c2c(nn1C)CSCc1cc(n(C)n1)CSc1cc(c3ccccc3c1)OCCCc1c(C(=O)O)n(C)c3c-2c(Cl)ccc13 [AZD5991] + C=CCn1c(=O)c2cnc(Nc3ccc(N4CCN(C)CC4)cc3)nc2n1-c1cccc(C(C)(C)O)n1 [AZD1775] (first compound max 1 µM, partner max 1 µM)	TRUE
Cc1cc2ncnn2cc1Nc1ncc2c(n1)n(C1CCOCC1)c(=O)n2C [AZD7648] + CN(C)CCCOc1ccc(-c2ccc3ncc4c(c3c2)n(C2CCOCC2)c(=O)n4C)cn1 [AZD0156] (first compound max 10 µM, 7x7, partner max 1 µM)	TRUE
Cc1c2c(nn1C)CSCc1cc(n(C)n1)CSc1cc(c3ccccc3c1)OCCCc1c(C(=O)O)n(C)c3c-2c(Cl)ccc13 [AZD5991] + CC(=O)O[C@H]1C(=O)[C@@]2(C)[C@H]([C@H](OC(=O)c3ccccc3)[C@]3(O)C[C@H](OC(=O)[C@H](O)[C@@H](NC(=O)c4ccccc4)c4ccccc4)C(C)=C1C3(C)C)[C@]1(OC(C)=O)CO[C@@H]1C[C@@H]2O [Paclitaxel] (first compound max 1 µM, 7x7, partner max 3 µM)	FALSE
